Tested on: SK-OV-3 ovarian
Assay text: NCI tumour cell line growth inhibition, 48 h
# Lookup of reported TGI keyed by entry

[[record]]
compound = "CCNCCNc1cc(-c2ccc(C(F)(F)F)cc2)c(C#N)c2nc3ccccc3n12"
experimental_system = "SK-OV-3 ovarian"
reported_value = "3.17 µM"

[[record]]
compound = "N#Cc1cc(-c2cc3ccccc3o2)oc1N"
experimental_system = "SK-OV-3 ovarian"
reported_value = "7.15 µM"

[[record]]
compound = "CCCc1c(O)nc(Nc2nc3ccccc3[nH]2)[nH]c1=O"
experimental_system = "SK-OV-3 ovarian"
reported_value = "> 100 µM"

[[record]]
compound = "COc1cccc2c1C(=O)c1c(O)c3c(c(O)c1C2=O)CC(O)(C(=O)CO)CC3OC1CC(N2CCOCC2C#N)C(O)C(C)O1 (configuration not stated)"
experimental_system = "SK-OV-3 ovarian"
reported_value = "2.4 µM"

[[record]]
compound = "Cc1cc(NS(=O)(=O)c2ccc(Nc3c4ccccc4nc4c(C(=O)N5CCN(CCO)CC5)cccc34)cc2)no1"
experimental_system = "SK-OV-3 ovarian"
reported_value = "> 100 µM"


# context switch: different compound, same TGI
TGI recorded for this compound, `O=C(c1cccs1)N1CCc2ccccc2C1` , is > 100 µM
